Biological target: T1, Cre recombinase monomer with E176V mutation
T1 chain: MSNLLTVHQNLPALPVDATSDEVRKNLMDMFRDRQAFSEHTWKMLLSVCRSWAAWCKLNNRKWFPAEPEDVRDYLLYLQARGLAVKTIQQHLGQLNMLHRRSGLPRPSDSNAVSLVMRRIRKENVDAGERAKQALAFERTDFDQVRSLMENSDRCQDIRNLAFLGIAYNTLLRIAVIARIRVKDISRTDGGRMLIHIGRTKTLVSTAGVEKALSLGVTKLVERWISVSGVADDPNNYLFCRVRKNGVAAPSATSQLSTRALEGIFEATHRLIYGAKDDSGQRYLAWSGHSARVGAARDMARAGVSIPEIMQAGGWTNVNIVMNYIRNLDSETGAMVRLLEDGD
Examples of proteins with documented Median dimer activity (recombination on loxP) follow.
measure.name: Median dimer activity (recombination on loxP) (%)

protein	reading
Cre recombinase monomer with R173M mutation (protein) MSNLLTVHQNLPALPVDATSDEVRKNLMDMFRDRQAFSEHTWKMLLSVCRSWAAWCKLNNRKWFPAEPEDVRDYLLYLQARGLAVKTIQQHLGQLNMLHRRSGLPRPSDSNAVSLVMRRIRKENVDAGERAKQALAFERTDFDQVRSLMENSDRCQDIRNLAFLGIAYNTLLMIAEIARIRVKDISRTDGGRMLIHIGRTKTLVSTAGVEKALSLGVTKLVERWISVSGVADDPNNYLFCRVRKNGVAAPSATSQLSTRALEGIFEATHRLIYGAKDDSGQRYLAWSGHSARVGAARDMARAGVSIPEIMQAGGWTNVNIVMNYIRNLDSETGAMVRLLEDGD	75
Cre recombinase monomer with R173Y mutation (protein) MSNLLTVHQNLPALPVDATSDEVRKNLMDMFRDRQAFSEHTWKMLLSVCRSWAAWCKLNNRKWFPAEPEDVRDYLLYLQARGLAVKTIQQHLGQLNMLHRRSGLPRPSDSNAVSLVMRRIRKENVDAGERAKQALAFERTDFDQVRSLMENSDRCQDIRNLAFLGIAYNTLLYIAEIARIRVKDISRTDGGRMLIHIGRTKTLVSTAGVEKALSLGVTKLVERWISVSGVADDPNNYLFCRVRKNGVAAPSATSQLSTRALEGIFEATHRLIYGAKDDSGQRYLAWSGHSARVGAARDMARAGVSIPEIMQAGGWTNVNIVMNYIRNLDSETGAMVRLLEDGD	35
Cre recombinase monomer with R173D mutation (protein) MSNLLTVHQNLPALPVDATSDEVRKNLMDMFRDRQAFSEHTWKMLLSVCRSWAAWCKLNNRKWFPAEPEDVRDYLLYLQARGLAVKTIQQHLGQLNMLHRRSGLPRPSDSNAVSLVMRRIRKENVDAGERAKQALAFERTDFDQVRSLMENSDRCQDIRNLAFLGIAYNTLLDIAEIARIRVKDISRTDGGRMLIHIGRTKTLVSTAGVEKALSLGVTKLVERWISVSGVADDPNNYLFCRVRKNGVAAPSATSQLSTRALEGIFEATHRLIYGAKDDSGQRYLAWSGHSARVGAARDMARAGVSIPEIMQAGGWTNVNIVMNYIRNLDSETGAMVRLLEDGD	53
Cre recombinase monomer with R173S mutation (protein) MSNLLTVHQNLPALPVDATSDEVRKNLMDMFRDRQAFSEHTWKMLLSVCRSWAAWCKLNNRKWFPAEPEDVRDYLLYLQARGLAVKTIQQHLGQLNMLHRRSGLPRPSDSNAVSLVMRRIRKENVDAGERAKQALAFERTDFDQVRSLMENSDRCQDIRNLAFLGIAYNTLLSIAEIARIRVKDISRTDGGRMLIHIGRTKTLVSTAGVEKALSLGVTKLVERWISVSGVADDPNNYLFCRVRKNGVAAPSATSQLSTRALEGIFEATHRLIYGAKDDSGQRYLAWSGHSARVGAARDMARAGVSIPEIMQAGGWTNVNIVMNYIRNLDSETGAMVRLLEDGD	49
Cre recombinase monomer with R173V mutation (protein) MSNLLTVHQNLPALPVDATSDEVRKNLMDMFRDRQAFSEHTWKMLLSVCRSWAAWCKLNNRKWFPAEPEDVRDYLLYLQARGLAVKTIQQHLGQLNMLHRRSGLPRPSDSNAVSLVMRRIRKENVDAGERAKQALAFERTDFDQVRSLMENSDRCQDIRNLAFLGIAYNTLLVIAEIARIRVKDISRTDGGRMLIHIGRTKTLVSTAGVEKALSLGVTKLVERWISVSGVADDPNNYLFCRVRKNGVAAPSATSQLSTRALEGIFEATHRLIYGAKDDSGQRYLAWSGHSARVGAARDMARAGVSIPEIMQAGGWTNVNIVMNYIRNLDSETGAMVRLLEDGD	53
Cre recombinase monomer with R173T mutation (protein) MSNLLTVHQNLPALPVDATSDEVRKNLMDMFRDRQAFSEHTWKMLLSVCRSWAAWCKLNNRKWFPAEPEDVRDYLLYLQARGLAVKTIQQHLGQLNMLHRRSGLPRPSDSNAVSLVMRRIRKENVDAGERAKQALAFERTDFDQVRSLMENSDRCQDIRNLAFLGIAYNTLLTIAEIARIRVKDISRTDGGRMLIHIGRTKTLVSTAGVEKALSLGVTKLVERWISVSGVADDPNNYLFCRVRKNGVAAPSATSQLSTRALEGIFEATHRLIYGAKDDSGQRYLAWSGHSARVGAARDMARAGVSIPEIMQAGGWTNVNIVMNYIRNLDSETGAMVRLLEDGD	65
